System: 889142-216-R-J1-PDC complex spheroid viability;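 also: spheroids exposed to compounds for seven days; 100% = DMSO vehicle control viability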
Test: Anticancer human tumor 889142-216-R-J1-PDC patient-derived bladder carcinoma cell line growth inhibition [POLQ]
Conditions: second compound 0.0316 µM; first compound 0.000316 µM; stronger effect = lower value
reported endpoint: viability, T/C

compound: CC[C@@]1(O)C(=O)OCc2c1cc1n(c2=O)Cc2cc3c(CN(C)C)c(O)ccc3nc2-1 + Cc1cccc(N(C)C(=O)C2C(O)CCN2c2nc(C)cc(C(F)(F)F)c2C#N)c1
measured target: 889142-216-R-J1-PDC complex spheroid viability;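 also: spheroids exposed to compounds for seven days; 100% = DMSO vehicle control viability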
reported endpoint: viability, T/C
reported result: 103%
--
compound: CC[C@@]1(O)C(=O)OCc2c1cc1n(c2=O)Cc2cc3c(CN(C)C)c(O)ccc3nc2-1 + Nc1ccc(C#CCN(C(=O)Cc2ncc(C(F)(F)F)cc2C(F)(F)F)c2ccc(F)cc2)nn1
measured target: 889142-216-R-J1-PDC complex spheroid viability;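 also: spheroids exposed to compounds for seven days; 100% = DMSO vehicle control viability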
reported endpoint: viability, T/C
reported result: 101%

Please go through the list and note viability, T/C for each compound.
1. Cn1ncnc1[C@H]1c2n[nH]c(=O)c3cc(F)cc(c23)N[C@@H]1c1ccc(F)cc1 + Cc1cccc(N(C)C(=O)C2C(O)CCN2c2nc(C)cc(C(F)(F)F)c2C#N)c1
2. Cn1ncnc1[C@H]1c2n[nH]c(=O)c3cc(F)cc(c23)N[C@@H]1c1ccc(F)cc1 + Nc1ccc(C#CCN(C(=O)Cc2ncc(C(F)(F)F)cc2C(F)(F)F)c2ccc(F)cc2)nn1
3. Cn1ncnc1[C@H]1c2n[nH]c(=O)c3cc(F)cc(c23)N[C@@H]1c1ccc(F)cc1 + COC1C(OC(N)=O)C(O)C(Oc2ccc3c(O)c(NC(=O)c4ccc(O)c(CC=C(C)C)c4)c(=O)oc3c2C)OC1(C)C

["100%", "96.8%", "97%"]
